- STUDY SYSTEM: human sphingosine-1-phosphate receptor 1 (S1P1) (Homo sapiens)
- PROCEDURE SUMMARY: Inhibition of cAMP production (HTRF cAMP HiRange), S1P1 CHO-K1 cells
- Format: cell-based
- CONDITION SUMMARY: inhibition of cAMP production; potency; read-out: hS1P1 CAMP pEC50 (converted)
- Sequence (P21453 whole entry): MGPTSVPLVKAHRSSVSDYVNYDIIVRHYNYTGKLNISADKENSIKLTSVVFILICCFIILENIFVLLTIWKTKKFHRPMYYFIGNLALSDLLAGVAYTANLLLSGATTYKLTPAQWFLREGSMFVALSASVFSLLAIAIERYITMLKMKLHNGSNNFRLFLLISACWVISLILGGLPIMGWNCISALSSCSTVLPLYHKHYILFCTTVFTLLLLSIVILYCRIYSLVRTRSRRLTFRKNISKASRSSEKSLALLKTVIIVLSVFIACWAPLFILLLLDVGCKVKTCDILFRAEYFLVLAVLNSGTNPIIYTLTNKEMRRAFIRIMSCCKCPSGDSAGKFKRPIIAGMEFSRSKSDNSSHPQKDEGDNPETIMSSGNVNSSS
ENDPOINT NAME: EC50

# count of solved cases: 5
{"MOL": "CCCn1nnc2cc(-c3nc(-c4cc(C)cc(C)c4)no3)ccc21", "TEST RESULT": "> 316 nM"}
{"MOL": "CCC1(CC)CC(=O)c2cc(-c3nc(-c4ccc(S(=O)(=O)NC)cc4)no3)ccc2O1", "TEST RESULT": "> 316 nM"}
{"MOL": "CCC1(CC)CC(=O)c2cc(-c3nnc(-c4cccnc4)o3)ccc2O1", "TEST RESULT": "> 316 nM"}
{"MOL": "Cc1cccc(C)c1-c1noc(-c2ccc3c(c2)nnn3C(C)C)n1", "TEST RESULT": "> 316 nM"}
{"MOL": "Cc1cc(-c2nc(-c3ccc4c(c3)nnn4C(C)C)no2)cnc1C", "TEST RESULT": "> 316 nM"}

Retrieve EC50 on human sphingosine-1-phosphate receptor 1 (S1P1) (Homo sapiens); query `Cc1ccsc1-c1noc(-c2ccc3c(c2)nnn3CC(C)C)n1`
< 316 nM

Retrieve EC50 on human sphingosine-1-phosphate receptor 1 (S1P1) (Homo sapiens); query `COc1cccc(-c2nc(-c3ccc4c(ccn4C(C)C)c3)ns2)c1`
> 316 nM

Retrieve EC50 on human sphingosine-1-phosphate receptor 1 (S1P1) (Homo sapiens); query `CC(C)n1nnc2cc(-c3noc(-c4ccccc4Br)n3)ccc21`
< 316 nM

Retrieve EC50 on human sphingosine-1-phosphate receptor 1 (S1P1) (Homo sapiens); query `COc1ccc(-c2cnc(-c3ccc4c(c3)nnn4C(C)C)s2)cc1`
> 316 nM

Retrieve EC50 on human sphingosine-1-phosphate receptor 1 (S1P1) (Homo sapiens); query `COc1cccc(-c2noc(-c3ccc4c(c3)nnn4C(C)C)n2)c1`
> 316 nM

Retrieve EC50 on human sphingosine-1-phosphate receptor 1 (S1P1) (Homo sapiens); query `C=CCNc1ccc(-c2nc(-c3ccc4[nH]nnc4c3)no2)cc1C#N`
< 316 nM

Retrieve EC50 on human sphingosine-1-phosphate receptor 1 (S1P1) (Homo sapiens); query `Cc1ccccc1-c1noc(-c2ccc3c(c2)CCC(=O)N3)n1`
> 316 nM

Retrieve EC50 on human sphingosine-1-phosphate receptor 1 (S1P1) (Homo sapiens); query `COc1ccccc1-c1noc(-c2ccc3[nH]ncc3c2)n1`
> 316 nM

Retrieve EC50 on human sphingosine-1-phosphate receptor 1 (S1P1) (Homo sapiens); query `CC(C)n1nnc2cc(-c3nc(-c4ccccc4)no3)ccc21`
< 316 nM

Retrieve EC50 on human sphingosine-1-phosphate receptor 1 (S1P1) (Homo sapiens); query `CSc1ccc(-c2nc(-c3ccc4c(c3)nnn4C3CCCC3)no2)cc1`
> 316 nM

Retrieve EC50 on human sphingosine-1-phosphate receptor 1 (S1P1) (Homo sapiens); query `COc1cccc(F)c1-c1noc(-c2ccc3c(ccn3C(C)C)c2)n1`
> 316 nM

Retrieve EC50 on human sphingosine-1-phosphate receptor 1 (S1P1) (Homo sapiens); query `Brc1ccccc1-c1nc(-c2ccc3c(c2)nnn3Cc2ccncc2)no1`
> 316 nM

Retrieve EC50 on human sphingosine-1-phosphate receptor 1 (S1P1) (Homo sapiens); query `Cc1cccc(-c2noc(-c3ccc4c(c3)nnn4C3CCCCC3)n2)c1`
> 316 nM

Retrieve EC50 on human sphingosine-1-phosphate receptor 1 (S1P1) (Homo sapiens); query `Brc1ccccc1-c1noc(-c2ccc3[nH]nnc3c2)n1`
> 316 nM

Retrieve EC50 on human sphingosine-1-phosphate receptor 1 (S1P1) (Homo sapiens); query `Clc1ccc(-c2noc(-c3ccc4c(c3)nnn4C3CCOCC3)n2)s1`
> 316 nM

Retrieve EC50 on human sphingosine-1-phosphate receptor 1 (S1P1) (Homo sapiens); query `Cc1ccccc1-c1nc(-c2ccc3c(c2)nnn3C(C)C)no1`
< 316 nM

Retrieve EC50 on human sphingosine-1-phosphate receptor 1 (S1P1) (Homo sapiens); query `CCC1(CC)CC(=O)c2cc(-c3nsc(-c4cccnc4)n3)ccc2O1`
< 316 nM

Retrieve EC50 on human sphingosine-1-phosphate receptor 1 (S1P1) (Homo sapiens); query `COc1ccc(-c2nc(-c3cccc4[nH]ccc34)ns2)cc1`
> 316 nM

Retrieve EC50 on human sphingosine-1-phosphate receptor 1 (S1P1) (Homo sapiens); query `CC(C)n1ccc2cc(-c3nc(-c4ccccc4Br)no3)ccc21`
< 316 nM

====

Item-by-item account of EC50
- STUDY SYSTEM: human sphingosine-1-phosphate receptor 1 (S1P1) (Homo sapiens)
- PROCEDURE SUMMARY: β-Arrestin2 recruitment assay (PathHunter), S1P1 CHO-K1 cells
- Format: cell-based
- CONDITION SUMMARY: β-arrestin2 recruitment; potency; read-out: hS1P1 B-arrestin2 pEC50 (converted)
- Protocol: Stable clonal Chinese hamster ovary K1 (CHO-K1) cells co-expressing EA-β-arrestin2 and the human sphingosine-1-phosphate receptor 1 (NM_001400, S1P1) with a C-terminal Prolink™ tag were purchased from DiscoverX corporation (Cat #: 93-0207C2). […] Agonist-promoted β-arrestin2 recruitment to the sphingosine-1-phosphate 1 receptor was determined using the β-arrestin PathHunter® Detection kit (DiscoverX Corporation, Cat #: 93-0001). […]
- Sequence (P21453 whole entry): as above
- Sequence (P32121 whole entry partner): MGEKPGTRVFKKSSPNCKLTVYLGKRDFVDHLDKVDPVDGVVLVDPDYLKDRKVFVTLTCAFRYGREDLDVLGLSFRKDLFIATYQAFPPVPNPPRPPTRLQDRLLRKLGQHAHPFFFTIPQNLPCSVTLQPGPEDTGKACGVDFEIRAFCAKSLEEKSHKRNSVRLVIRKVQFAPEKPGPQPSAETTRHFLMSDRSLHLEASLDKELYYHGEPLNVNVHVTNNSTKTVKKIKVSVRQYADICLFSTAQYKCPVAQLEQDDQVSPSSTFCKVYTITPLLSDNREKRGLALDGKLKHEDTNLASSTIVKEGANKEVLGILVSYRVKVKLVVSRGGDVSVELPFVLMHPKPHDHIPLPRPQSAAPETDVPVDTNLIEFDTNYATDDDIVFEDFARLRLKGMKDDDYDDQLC

# count of solved cases: 5
{"MOL": "COc1ccccc1-c1noc(-c2ccc3[nH]cnc3c2)n1", "EC50": "> 10 µM"}
{"MOL": "COc1ccccc1-c1nnc(-c2ccc3c(c2)c(=O)on3C)o1", "EC50": "> 10 µM"}
{"MOL": "Cc1cnc(-c2noc(-c3ccc4c(c3)nnn4C(C)C)n2)cn1", "EC50": "> 10 µM"}
{"MOL": "CC(C)Oc1ccc(-c2noc(-c3ccc4c(c3)nnn4C(C)C)n2)cc1C(F)(F)F", "EC50": "< 10 µM"}
{"MOL": "CC(C)c1cc(-c2nc(-c3ccc4c(c3)nnn4C(C)C)no2)ccn1", "EC50": "> 10 µM"}

Recall and state the measured EC50 for `CC(C)n1nnc2cc(-c3nc(-c4ccccc4O)no3)ccc21` .
> 10 µM

Recall and state the measured EC50 for `COc1ccccc1-c1nc(-c2ccc3c(c2)nnn3C(C)C)no1` .
< 10 µM

Recall and state the measured EC50 for `CC(C)n1nnc2cc(-c3nc(-c4ccc(-c5ccccc5)cn4)no3)ccc21` .
> 10 µM

Recall and state the measured EC50 for `CC(C)n1nnc2cc(-c3nc(-c4cccc5c4OCO5)no3)ccc21` .
< 10 µM

Recall and state the measured EC50 for `Cc1ccncc1-c1noc(-c2ccc3nnn(CC(C)C)c3c2)n1` .
< 10 µM

Recall and state the measured EC50 for `Fc1cc(-c2noc(-c3ccc4c(c3)nnn4C3CCCC3)n2)ccc1C(F)(F)F` .
> 10 µM

Recall and state the measured EC50 for `CCC1(CC)CC(=O)c2cc(-c3nc(-c4ccc(S(=O)(=O)NC)cc4)no3)ccc2O1` .
< 10 µM

Recall and state the measured EC50 for `CC(C)n1nnc2cc(-c3nc4c(o3)Cc3ccccc3-4)ccc21` .
< 10 µM

Recall and state the measured EC50 for `CC(C)Cn1nnc2cc(-c3nc(-c4ccccc4Cl)no3)ccc21` .
> 10 µM

====

- STUDY SYSTEM: human sphingosine-1-phosphate receptor 1 (S1P1) (Homo sapiens)
- PROCEDURE SUMMARY: Inhibition of cAMP production (HTRF cAMP HiRange), S1P1 CHO-K1 cells
- Format: cell-based
- CONDITION SUMMARY: inhibition of cAMP production; potency; read-out: hS1P1 CAMP pEC50 (converted)
ENDPOINT NAME: EC50

# count of solved cases: 4
{"COMPOUND": "COc1cc(-c2noc(-c3ccc4c(c3)nnn4C3CC3)n2)ccn1 [Compound 155]", "EC50": "> 316 nM"}
{"COMPOUND": "Cc1ccncc1-c1noc(-c2ccc3nnn(C(C)C)c3c2)n1 [Compound 264]", "EC50": "> 316 nM"}
{"COMPOUND": "c1cc(-c2noc(-c3ccc4c(c3)nnn4C3CCCC3)n2)ccn1 [Compound 174]", "EC50": "< 316 nM"}
{"COMPOUND": "Fc1ccc(-c2noc(-c3ccc4c(c3)nnn4C3CCCC3)n2)cc1 [Compound 232]", "EC50": "> 316 nM"}

Recall and state the measured EC50 for CC(C)Oc1ccc(-c2nc(-c3ccc4c(c3)nnn4C3CCCC3)no2)cc1 [Compound 121] .
> 316 nM

Recall and state the measured EC50 for C=CCNc1ccc(-c2nc(-c3ccc4c(c3)CCC(=O)N4)no2)cc1C#N [Compound 61] .
< 316 nM

Recall and state the measured EC50 for CCCn1nnc2cc(-c3nc(-c4cccc(C)c4)no3)ccc21 [Compound 54] .
> 316 nM

Recall and state the measured EC50 for CCC1(CC)CC(=O)c2cc(-c3nc(-c4ccc5[nH]cnc5c4)no3)ccc2O1 [Compound 211] .
> 316 nM

Recall and state the measured EC50 for Cc1cnc(-c2noc(-c3ccc4c(c3)nnn4C(C)C)n2)cn1 [Compound 157] .
> 316 nM

Recall and state the measured EC50 for CC(C)n1nnc2cc(-c3noc(C4CCC4)n3)ccc21 [Compound 18] .
> 316 nM

Recall and state the measured EC50 for COc1ccc(-c2nsc(-c3ccc4[nH]ccc4c3)n2)cc1 [Compound 363] .
> 316 nM

Recall and state the measured EC50 for Cc1ccccc1-c1noc(-c2ccc3nnn(C(C)C)c3c2)n1 [Compound 308] .
> 316 nM
